system: corn (Zea mays); assay: Test G Pre-Emergence Protocol; format: in vivo; settings: Zea mays, pre-emergence, 312 h, 62.5 g ai/ha, evaluated after 13 days, 100=total damage to plant, 0=no damage to plant, read-out: plant damage rating, Corn
Below, each entry is listed with its recorded plant injury at 62.5 g/ha.
Entry rule: numbers only, all in %.

Request: So what's the measured plant injury at 62.5 g/ha for this one? CN1C[C@@H](c2ccc(C(F)(F)F)cc2)[C@H](C(=O)Nc2ccc(F)nc2)C1=O (racemic) [Compound 1555]
Response: 0

Request: Now give it for Cc1nc(NC(=O)[C@@H]2C(=O)N(C)C[C@H]2c2ccc(C(F)(F)F)cc2)ccc1F (racemic) [Compound 1613] too.
Response: 0

Request: Would you mind doing CN1C[C@@H](c2ccc(C(F)(F)F)cc2)[C@H](C(=O)Nc2nccc(=O)[nH]2)C1=O (racemic) [Compound 1622] as well?
Response: 0

Request: Another: CN1C[C@@H](c2ccc(C(F)(F)F)cc2)[C@H](C(=O)Nc2ncc(Cl)s2)C1=O (racemic) [Compound 1569]
Response: 0

---

parameter: melting point

Request: Looking for the measured melting point of `CCc1cc([C@H]2CNC(=O)[C@@H]2C(=O)Nc2ccccc2F)cs1` , can you help?
Response: 96 to 100 °C

Request: Same read-out for `CN1C[C@H](c2ccc(F)c(Oc3ccccc3)c2)[C@@H](C(=O)Nc2ccccc2S(C)(=O)=O)C1=O` ?
Response: 141 to 145 °C

Request: # iterate: `COc1ccc([C@H]2CNC(=O)[C@@H]2C(=O)Nc2cccc(F)c2F)cc1`
Response: 187 to 191 °C

Request: Item: O=C1NCC(c2ccccc2)C1C(=O)Nc1cc(F)ccc1F (centres unmarked)
Response: 147 to 149 °C

Request: Next molecule: `O=C1NCC[C@H](c2ccc(Cl)cc2)[C@H]1C(=O)Nc1cccc(F)c1F`
Response: 86 to 89 °C

---

tested on: Kochia (Kochia scoparia); assay: Test A preemergence; assay type: in vivo; details: Bassia scoparia, pre-emergence, 240 h, 125 g ai/ha, Preemergence, visual injury rating after approximately 10 d; read-out: Kochia plant response rating (0 to 100 scale, 0 is no effect, 100 is complete control)
Examples of compounds with documented pest or weed control at 125 g/ha follow.
Output spec: scalar in %, unitless text.

Guide cases for pest or weed control at 125 g/ha, answers given:
compound | unit | result_number
CN1CC[C@H](c2ccccc2C(F)(F)F)[C@@H](C(=O)Nc2cccc(F)c2F)C1=O | % | 0
CC(C)Oc1ccc([C@H]2CN(C)C(=O)[C@@H]2C(=O)Nc2ccccc2F)cc1 | % | 30
Cc1ccc([C@H]2CNC(=O)[C@@H]2C(=O)Nc2cccc(F)c2F)cc1C | % | 60
O=C1NC[C@H](c2cc(C(F)(F)F)ccn2)[C@H]1C(=O)Nc1ccccc1F | % | 0
O=C1NC[C@H](c2ccc3c(c2)OCO3)[C@H]1C(=O)Nc1ccc(F)c(F)c1F | % | 80
Cc1ccc([C@H]2CNC(=S)[C@@H]2C(=O)Nc2ccccc2F)cc1 (racemic) | % | 0
CN1C[C@H](c2cc(C(F)(F)F)cs2)[C@@H](C(=O)Nc2ccccc2F)C1=O | % | 50

Request: Quick one: pest or weed control at 125 g/ha of `CC(C)Oc1ccc([C@H]2CN(C)C(=O)[C@@H]2C(=O)Nc2ccc(F)cc2F)cc1` ?
Response: 0
